Target: Jak2 (UniProt O60674)
Sequence (O60674 whole entry, looked up): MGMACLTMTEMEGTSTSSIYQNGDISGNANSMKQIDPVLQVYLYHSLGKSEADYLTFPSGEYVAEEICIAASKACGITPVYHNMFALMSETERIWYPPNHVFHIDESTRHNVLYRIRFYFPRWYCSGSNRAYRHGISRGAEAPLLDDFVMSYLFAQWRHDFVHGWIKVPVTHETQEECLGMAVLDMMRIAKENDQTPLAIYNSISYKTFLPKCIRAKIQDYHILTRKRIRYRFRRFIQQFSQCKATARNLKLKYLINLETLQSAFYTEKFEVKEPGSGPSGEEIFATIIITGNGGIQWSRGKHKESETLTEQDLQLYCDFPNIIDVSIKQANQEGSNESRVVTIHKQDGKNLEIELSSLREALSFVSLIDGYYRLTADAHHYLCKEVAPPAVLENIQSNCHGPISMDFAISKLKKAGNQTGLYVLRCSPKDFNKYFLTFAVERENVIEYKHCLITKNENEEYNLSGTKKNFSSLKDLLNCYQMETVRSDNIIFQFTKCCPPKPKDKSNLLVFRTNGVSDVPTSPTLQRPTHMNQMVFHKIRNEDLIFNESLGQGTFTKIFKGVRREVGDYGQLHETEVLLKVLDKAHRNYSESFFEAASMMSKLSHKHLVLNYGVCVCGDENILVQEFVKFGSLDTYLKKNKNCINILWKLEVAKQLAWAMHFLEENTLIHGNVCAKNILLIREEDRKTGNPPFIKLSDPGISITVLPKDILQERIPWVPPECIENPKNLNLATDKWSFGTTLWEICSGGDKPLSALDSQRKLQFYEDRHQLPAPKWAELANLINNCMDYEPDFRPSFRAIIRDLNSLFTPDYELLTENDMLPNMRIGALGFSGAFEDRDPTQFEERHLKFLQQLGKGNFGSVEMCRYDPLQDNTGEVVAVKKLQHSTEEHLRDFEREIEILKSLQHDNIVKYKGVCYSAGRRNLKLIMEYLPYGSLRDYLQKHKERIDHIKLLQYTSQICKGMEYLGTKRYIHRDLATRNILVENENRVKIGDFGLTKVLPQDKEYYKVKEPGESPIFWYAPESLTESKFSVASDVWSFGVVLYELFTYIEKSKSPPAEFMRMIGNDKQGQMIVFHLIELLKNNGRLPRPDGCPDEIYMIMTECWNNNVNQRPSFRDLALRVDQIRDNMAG
Assay: phosphorylation enrichment, bacterial display (enrichment ratio); higher = better substrate or ligand; peptides without Tyr show the background
Assign Condition met whenever phosphorylation enrichment does not fall below 0.8; assign Condition not met whenever it does.

chainSequence	experimentalSystem	discreteLabel
EVKEAYMGSVL [ACAT1_Y90_N93S]	Jak2 (UniProt O60674)	Condition met
ENELTYFCCKK [CD59_Y86_YF]	Jak2 (UniProt O60674)	Condition met
HESEIYCKVCY [CSRP3_Y57]	Jak2 (UniProt O60674)	Condition met
KWTVDYLSQVG [TYW5_Y48]	Jak2 (UniProt O60674)	Condition met
ELTAKYLNYYQ [P3H4_Y181]	Jak2 (UniProt O60674)	Condition not met
TSESSYFKSLN [NGEF_Y288_A286S_YF]	Jak2 (UniProt O60674)	Condition not met
IQSAKYDMAED [TTC21B_Y1213]	Jak2 (UniProt O60674)	Condition met

----------
Biological target: SHP2-C SH2;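 note: peptide library displayed on the E. coli surface as eCPX fusions, selected cells deep-sequenced, score is each peptide's frequency after selection divided by its frequency in the input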
Test: SH2 binding enrichment of the phosphorylated peptide, bacterial display (enrichment ratio); higher = better substrate or ligand; peptides without Tyr show the background

chainSequence	SH2 binding enrichment
ARLEYYENEKK [IRS1_Y47]	0.888
VLTSKYPGGGG [HBA1_Y141_R142P]	0.612
GAAMLYFPSVS [GPR143_Y177_YF]	0.895
LMLVLYGRIFL [HTR1A_Y215_R220L]	0.776
QRIHNYFEHRF [HCN4_Y554_D553N_YF]	1.22
DCAAIYGNEPE [AKR1A1_Y50]	0.689
FSLIHYAGIVD [MYH7_Y582]	19
GIKAAYEAERG [LMNA_Y81_L85R]	0.685
LPEHPYHSRPR [NDUFA8_Y142_N140H]	0.538
SVIVPYEPPEV [TP53_Y220_V217I]	0.712
EVKEAYMGSVL [ACAT1_Y90_N93S]	0.671
LLQAEYWHDPI [PPT1_Y185_V181L]	0.803
NTGDFCDLFGG [PTPN11_Y63_Y63C_YF]	0.823
RETSLYKACER [ASB2_Y162_P160S]	0.799

----------
Biological target: Hck (UniProt P08631)
Sequence (P08631 whole entry, looked up): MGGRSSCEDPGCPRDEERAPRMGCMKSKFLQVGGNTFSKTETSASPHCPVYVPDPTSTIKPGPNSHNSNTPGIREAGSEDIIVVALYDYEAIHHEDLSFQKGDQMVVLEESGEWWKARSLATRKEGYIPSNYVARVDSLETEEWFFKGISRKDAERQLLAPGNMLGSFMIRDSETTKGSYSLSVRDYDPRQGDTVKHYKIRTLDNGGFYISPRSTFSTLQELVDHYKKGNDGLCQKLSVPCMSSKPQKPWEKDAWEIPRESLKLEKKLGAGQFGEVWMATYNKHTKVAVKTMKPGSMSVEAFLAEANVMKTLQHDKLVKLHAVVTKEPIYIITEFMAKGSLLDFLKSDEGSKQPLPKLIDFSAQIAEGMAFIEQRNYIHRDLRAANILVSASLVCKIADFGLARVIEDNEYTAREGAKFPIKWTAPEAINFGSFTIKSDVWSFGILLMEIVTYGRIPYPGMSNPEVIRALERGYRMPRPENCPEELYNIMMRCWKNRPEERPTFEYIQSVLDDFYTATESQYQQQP
Assay: phosphorylation enrichment, bacterial display (enrichment ratio); higher = better substrate or ligand; peptides without Tyr show the background
measuredAttribute: phosphorylation enrichment

chainSequence	experimentalSystem	measuredAttribute	experimentalValue
WSRAMYPDLGP [STARD8_Y330]	Hck (UniProt P08631)	phosphorylation enrichment	0.463
PFWKLYESVKK [MKI67_Y241]	Hck (UniProt P08631)	phosphorylation enrichment	4.34
LSPNMYNSKFW [TARSL2_Y457_L461F]	Hck (UniProt P08631)	phosphorylation enrichment	1.25
ATDLAYFLVCK [ASL_Y375_R379C_YF]	Hck (UniProt P08631)	phosphorylation enrichment	0.674
DPFHVYIKNRV [KCNE3_Y95_YF]	Hck (UniProt P08631)	phosphorylation enrichment	0.437
PIAPVYAPSMV [ACAT1_Y331_A333P]	Hck (UniProt P08631)	phosphorylation enrichment	21
PLGVLYKVKVY [PTS_Y128_V124L]	Hck (UniProt P08631)	phosphorylation enrichment	0.465
KLVDVYVNDAF [PGK1_Y161_G158V]	Hck (UniProt P08631)	phosphorylation enrichment	0.554
TMKSRYMELFD [BBS2_Y644_YF]	Hck (UniProt P08631)	phosphorylation enrichment	0.48
HKANEYYPVVI [ADAMTS18_Y764_L769I]	Hck (UniProt P08631)	phosphorylation enrichment	0.723
RKGGSYSQAAS [HLA-A_Y344_T345S]	Hck (UniProt P08631)	phosphorylation enrichment	0.38
FRNSLYAPDYS [FAM92A_Y226]	Hck (UniProt P08631)	phosphorylation enrichment	0.88
LNERHYGGLTG [PGAM2_Y92]	Hck (UniProt P08631)	phosphorylation enrichment	0.454
RSSKMYPKTRS [LPL_Y329_L330P]	Hck (UniProt P08631)	phosphorylation enrichment	0.509

----------
Molecular target: Jak2 (UniProt O60674)
Test: phosphorylation enrichment, bacterial display (enrichment ratio); higher = better substrate or ligand; peptides without Tyr show the background

chainSequence	experimentalSystem	phosphorylation enrichment
LDAFIYDAAVL [GRIN2A_Y730]	Jak2 (UniProt O60674)	0.827
QITQVCGFFDE [PPP2CA_Y127_Y127C_YF]	Jak2 (UniProt O60674)	1.92
CTTTHYNYMCN [TP53_Y234_I232T]	Jak2 (UniProt O60674)	0.58
AERKLYSGAQT [ZAP70_Y178]	Jak2 (UniProt O60674)	0.412
HAVYIYDICHV [TWNK_Y508_V507I]	Jak2 (UniProt O60674)	0.989
TCRPPYFHRNC [HGD_Y333_F329C_YF]	Jak2 (UniProt O60674)	0.914
RFLKDYGEFEV [GINS1_Y156_C152Y_YF]	Jak2 (UniProt O60674)	1.13
EPVSDYINANV [PTPN11_Y304_I309V]	Jak2 (UniProt O60674)	0.754
MAYDRYAAICS [OR8H2_Y123_H120Y]	Jak2 (UniProt O60674)	1.04
AELVRYYMEHH [PTPN11_Y80_Q79R]	Jak2 (UniProt O60674)	0.865
QPSALYEDRYL [ASS1_Y83_S79P]	Jak2 (UniProt O60674)	1.04
DGFTDYAEFAK [MCFD2_Y138_I136T_YF]	Jak2 (UniProt O60674)	1.34
KLIETCFSKNF [PLP1_Y50_Y50C_YF]	Jak2 (UniProt O60674)	1.06
NPQKSYFILLF [WAS_Y83_R86L_YF]	Jak2 (UniProt O60674)	1.05
KDPPDYKYQPR [SOX9_Y172_H169P]	Jak2 (UniProt O60674)	0.663
QMVGMYASSFM [AVPR2_Y124_YF]	Jak2 (UniProt O60674)	1.21
LGGAMYYLEAE [PKHD1_Y452]	Jak2 (UniProt O60674)	1.42
LNERHYGGLTG [PGAM2_Y92]	Jak2 (UniProt O60674)	4.09
DVLEFYNSKKT [PAK1_Y131]	Jak2 (UniProt O60674)	1.11
DLQDEYDFKCK [STAT1_Y170]	Jak2 (UniProt O60674)	1.19
KWRGQYDVAIR [BTK_Y425_K430R]	Jak2 (UniProt O60674)	0.461
LPVHFYGHVEH [PYGM_Y204]	Jak2 (UniProt O60674)	1.63
NFFDTCIKTCL [IQGAP2_Y1445_Y1445C_YF]	Jak2 (UniProt O60674)	0.879
RLEGVYGNNID [PTEN_Y46_R47G]	Jak2 (UniProt O60674)	0.557
PGQAAYQKVVA [HBB_Y131_V127G]	Jak2 (UniProt O60674)	0.626
PYSNSYENSLI [EPOR_Y489_P488S]	Jak2 (UniProt O60674)	0.903
ENPLDYGSAWA [AR_Y395]	Jak2 (UniProt O60674)	0.991
FSLIHYASIVD [MYH7_Y582_G584S]	Jak2 (UniProt O60674)	1.13
TRVMEYISRLD [CLTCL1_Y1043]	Jak2 (UniProt O60674)	0.637

----------
Target: Jak2 (UniProt O60674)
Test: phosphorylation enrichment, bacterial display (enrichment ratio); higher = better substrate or ligand; peptides without Tyr show the background
Below, each entry is listed alongside its reported phosphorylation enrichment.

chainSequence	experimentalSystem	phosphorylation enrichment
IMAFFYMCDSA [CASD1_Y382_R386S_YF]	Jak2 (UniProt O60674)	1.41
NFRPGYNNFFN [USH2A_Y467_YF]	Jak2 (UniProt O60674)	0.712
LKDEDYLKDIV [HAUS3_Y582]	Jak2 (UniProt O60674)	2.87
PAGSGYPAYLG [ATP6V1A_Y374_D371G]	Jak2 (UniProt O60674)	0.727
SPFAVYLFFTF [RPGRIP1_Y826_R827L_YF]	Jak2 (UniProt O60674)	0.891
GRQGIYTENER [GPR143_Y231]	Jak2 (UniProt O60674)	0.548
RARPPYTVAAD [ANKZF1_Y572]	Jak2 (UniProt O60674)	0.58

----------
Tested on: c-Abl (mouse)
Experiment: phosphorylation enrichment, bacterial display (enrichment ratio); higher = better substrate or ligand; peptides without Tyr show the background
measuredAttribute: phosphorylation enrichment

chainSequence	measuredAttribute	experimentalValue
RSSKMYPKTRS [LPL_Y329_L330P]	phosphorylation enrichment	1.2
DLQDEYDFKCK [STAT1_Y170]	phosphorylation enrichment	0.877
FRTPGYREVVI [TNS2_Y673_A670T_YF]	phosphorylation enrichment	0.597
LSPNMYNSKLW [TARSL2_Y457]	phosphorylation enrichment	0.726
YQLENCCNGGG [INS_Y108_Y108C]	phosphorylation enrichment	0.556
DLDLTYIFPNI [PTEN_Y27_YF]	phosphorylation enrichment	1.17
DVLVEYQGEGR [GNS_Y416]	phosphorylation enrichment	0.709
FDDDDYDMDFV [BLM_Y296_T298M]	phosphorylation enrichment	0.68
TFSPPYYHRNC [HGD_Y333_R330S]	phosphorylation enrichment	0.612
KDPPDYKYQPR [SOX9_Y172_H169P]	phosphorylation enrichment	0.747
FHLLPYTIRAM [PARS2_Y93_V95I_YF]	phosphorylation enrichment	0.621
QLHEHYKIHKE [NSMAF_Y626]	phosphorylation enrichment	0.623
TLKDVCDDGKY [RPS6KA3_Y483_Y483C]	phosphorylation enrichment	0.664
DEDYLYREELA [POR_Y575]	phosphorylation enrichment	0.903
RGVTRYIFNRE [HLA-DQB1_Y62_Y58G_YF]	phosphorylation enrichment	1.34
LLLLFYVVRFC [MPZ_Y177_YF]	phosphorylation enrichment	0.863
IEPVIYVVQRR [ANOS1_Y217]	phosphorylation enrichment	0.58
VFSTDYFRVGG [NTRK2_Y706_YF]	phosphorylation enrichment	0.734
IPTPAYQSSPA [PDCD6IP_Y727]	phosphorylation enrichment	0.504
SNSATYSGSVA [PDLIM5_Y382]	phosphorylation enrichment	0.576
GRVLGYGAFGK [FLT4_Y853]	phosphorylation enrichment	0.434
VDASFCGGRGV [ANTXR2_Y381_Y381C_YF]	phosphorylation enrichment	0.744
FSPCDYQPCLA [TNS1_Y798_Y796C_YF]	phosphorylation enrichment	0.996
GSSSSYGQHGS [HRNR_Y517]	phosphorylation enrichment	0.322
LAGRFYALKSM [CKB_Y174_YF]	phosphorylation enrichment	1.18
PIFEGYGLPHA [ACTA1_Y171_A172G_YF]	phosphorylation enrichment	0.872
NDLMEYAKQHG [ASS1_Y163]	phosphorylation enrichment	0.75
LPIQTYSALNF [DES_Y423]	phosphorylation enrichment	1.59
DCAAIYGNEPE [AKR1A1_Y50]	phosphorylation enrichment	0.799
CPYNLYAEQLS [HGD_Y40]	phosphorylation enrichment	0.936
